Experiment: Volume of distribution at steady state in Sprague-Dawley rat at 1 mg/kg, iv measured upto 24 hrs by HPLC-MS/MS analysis
Type: ADME, organism-based
Details: in vivo, read-out: Vdss
reportedEndpoint: Vd (L/kg)

recordSmiles: O=C(O)CCC(=O)N[C@@H](CC(=O)O)Cc1ccc(-c2cccc(Cl)c2)cc1
unitsLabel: L/kg
number: 0.1
//
recordSmiles: COc1ccc(Cl)cc1-c1ccc(C[C@H](CC(=O)O)NC(=O)CCC(=O)O)cc1
unitsLabel: L/kg
number: 0.1

* * *

Assay: AUC (0 to 7 hrs) in Sprague-Dawley rat at 1 mg/kg, iv measured upto 24 hrs by HPLC-MS/MS analysis
Assay type: ADME, organism-based
Set-up: time < 7 hr, dose 1 mg/kg, route intravenous
Settings: in vivo

recordSmiles: COc1ccc(Cl)cc1-c1ccc(C[C@H](CC(=O)O)NC(=O)CCC(=O)O)cc1
AUC(0-t) at 7 h / µM·h: 8.1

recordSmiles: O=C(O)CCC(=O)N[C@@H](CC(=O)O)Cc1ccc(-c2cccc(Cl)c2)cc1
AUC(0-t) at 7 h / µM·h: 8.73

* * *

Experiment: Stability in human liver microsomes assessed as intrinsic clearance
Format: ADME, Microsome
Settings: read-out: CLH

recordSmiles: O=C(O)CCC(=O)N[C@@H](CC(=O)O)Cc1ccc(-c2ccccc2)cc1
microsomal CLint: < 3.42 µL/min/mg

* * *

Experiment: Volume of distribution in Sprague-Dawley rat at 1 mg/kg, iv
Type: ADME, organism-based
Details: in vivo

recordSmiles: O=C(O)CCC(=O)N[C@@H](CC(=O)O)Cc1ccc(-c2ccccc2)cc1
Vd [L/kg]: 0.2

* * *

Experiment: Cmax in Sprague-Dawley rat at 3 mg/kg, po measured upto 24 hrs by HPLC-MS/MS analysis
Format: ADME, organism-based
Set-up: dose 3 mg/kg, route oral
Details: in vivo

recordSmiles: CCOC(=O)C[C@@H](Cc1ccc(-c2cccc(Cl)c2)cc1)NC(=O)CCC(=O)O
unitsLabel: µM
Cmax: 12.6
--
recordSmiles: CCOC(=O)C[C@@H](Cc1ccc(-c2cc(Cl)ccc2OC)cc1)NC(=O)CCC(=O)O
unitsLabel: µM
Cmax: 5.38

* * *

Assay: Half life in Sprague-Dawley rat at 1 mg/kg, iv
Assay type: ADME, organism-based
Details: in vivo
reportedEndpoint: half-life (h)

recordSmiles: O=C(O)CCC(=O)N[C@@H](CC(=O)O)Cc1ccc(-c2ccccc2)cc1
reportedEndpoint: half-life
unitsLabel: h
number: 2.5

* * *

Assay: Intrinsic clearance in human Hepatocyte assessed per million cells
Type: ADME, cell-based
Conditions: hepatocytes, read-out: CLH
reportedEndpoint: hepatocyte CLint (µL/min/1e6 cells)

recordSmiles: O=C(O)CCC(=O)N[C@@H](CC(=O)O)Cc1ccc(-c2ccccc2)cc1
number: 0.68
